experiment: Clearance in Sprague-Dawley rat at 5.2 mg/kg, iv and 10.5 mg/kg, po by LC-MS/MS analysis; format: ADME, organism-based; settings: in vivo
Experimental endpoint: clearance (mL/min/kg)
// units = mL/min/kg; emit number, no label

clearance for "O=C(O)c1ccc2c(c1)nc(Nc1cccc(Cl)c1)c1ccncc12" is 1.67

###

test system: LNCaP; assay: Antiproliferative activity against human LNCAP cells after 4 days by alamar blue assay; type: functional, cell-based; conditions: 96 h
pIC50: −log10 of the molar value.
Decision: pIC50 >= 5 yields Fulfilled, all other cases yield Not fulfilled.

Example entries begin here.
[
  {
    "Compound": "O=C(O)c1ccc2c(c1)nc(Nc1cccc(Cl)c1)c1ccncc12 [SILMITASERTIB]",
    "Assigned category": "Fulfilled"
  },
  {
    "Compound": "O=C(O)c1ccc2c(c1)nc(Nc1ccc(F)c(Cl)c1)c1ccncc12",
    "Assigned category": "Fulfilled"
  },
  {
    "Compound": "C#Cc1cccc(Nc2nc3cc(C(=O)O)ccc3c3cnccc23)c1",
    "Assigned category": "Not fulfilled"
  }
]

Okay, next one:
# check: pIC50 of "N#Cc1cccc(Nc2nc3cc(C(=O)O)ccc3c3cnccc23)c1" is greater than or equal to 5 Not fulfilled

###

target: Casein kinase II (Homo sapiens, UniProt P19784+P67870+P68400); assay: Inhibition of human recombinant CK2 assessed as inhibition of [gamma33P]ATP incorporation into substrate by […]; format: protein-complex assay
Sequence (P67870 whole entry): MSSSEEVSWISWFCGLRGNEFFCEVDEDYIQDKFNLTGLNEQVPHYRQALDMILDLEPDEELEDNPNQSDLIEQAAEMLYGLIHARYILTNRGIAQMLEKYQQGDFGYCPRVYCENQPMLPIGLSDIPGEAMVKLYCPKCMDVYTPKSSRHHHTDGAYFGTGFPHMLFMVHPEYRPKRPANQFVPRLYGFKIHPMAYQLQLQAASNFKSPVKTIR
Sequence (P68400 whole entry): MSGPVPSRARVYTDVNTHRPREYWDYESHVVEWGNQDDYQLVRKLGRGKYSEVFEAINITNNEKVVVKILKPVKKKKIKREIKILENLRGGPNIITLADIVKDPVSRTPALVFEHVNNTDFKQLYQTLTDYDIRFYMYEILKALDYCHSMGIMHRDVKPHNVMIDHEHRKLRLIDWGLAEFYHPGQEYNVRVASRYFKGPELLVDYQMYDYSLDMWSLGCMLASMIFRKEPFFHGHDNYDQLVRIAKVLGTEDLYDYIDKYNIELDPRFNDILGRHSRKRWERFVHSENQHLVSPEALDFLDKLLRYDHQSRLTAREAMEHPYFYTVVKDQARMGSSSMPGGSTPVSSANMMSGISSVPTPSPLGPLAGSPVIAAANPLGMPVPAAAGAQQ
Sequence (P19784 whole entry): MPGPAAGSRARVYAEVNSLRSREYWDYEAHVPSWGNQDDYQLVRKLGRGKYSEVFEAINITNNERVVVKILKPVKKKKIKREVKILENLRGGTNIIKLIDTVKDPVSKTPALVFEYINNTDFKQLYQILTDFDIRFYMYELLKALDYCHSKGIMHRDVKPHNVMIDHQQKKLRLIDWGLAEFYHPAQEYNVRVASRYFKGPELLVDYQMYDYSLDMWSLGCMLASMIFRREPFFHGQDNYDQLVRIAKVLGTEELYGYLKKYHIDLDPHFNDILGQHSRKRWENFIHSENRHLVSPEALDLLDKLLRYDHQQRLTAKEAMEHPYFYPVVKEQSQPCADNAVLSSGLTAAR
Experimental endpoint: IC50 (µM)
// units = µM; emit number, no label

[
  {
    "Smiles structure": "CONc1nc2cc(C(=O)O)ccc2c2cnccc12",
    "Experimental endpoint": "IC50",
    "Value": 0.008
  }
]

IC50 for "O=C(O)c1ccc2c(c1)nc(Nc1ccccc1Cl)c1ccncc12" is 0.008

IC50 for "O=C(O)c1ccc2c(c1)nc(NC1CCCC1)c1ccncc12" is 0.027

IC50 for "Cc1c(C(=O)O)ccc2c1nc(Nc1cccc(Cl)c1)c1ccncc12" is 0.006

IC50 for "O=C(O)c1ccc2nc(Nc3cccc(Cl)c3)c3ccncc3c2c1" is 0.35

IC50 for "O=C(O)c1ccc2c(c1)nc(Nc1ccc(Oc3ccccc3)cc1)c1ccncc12" is 0.069

###

test system: A-375; assay: Antiproliferative activity against human A375 cells after 4 days by alamar blue assay; type: functional, cell-based; conditions: A-375, 96 h
Below: a set of entries, each annotated with reported pIC50.
# pIC50: negative log10 of molar concentration; output just the value

[
  {
    "Smiles structure": "C#Cc1cccc(Nc2nc3cc(C(=O)O)ccc3c3cnccc23)c1",
    "Experimental endpoint": "pIC50",
    "Value": 5.13
  },
  {
    "Smiles structure": "O=C(O)c1ccc2c(c1)nc(Nc1ccc(F)c(Cl)c1)c1ccncc12",
    "Experimental endpoint": "pIC50",
    "Value": 5.49
  }
]

pIC50 for "O=C(O)c1ccc2c(c1)nc(Nc1cccc(Cl)c1)c1ccncc12" is 5.41

###

assay: Elimination half life in Sprague-Dawley rat at 5.2 mg/kg, iv and 10.5 mg/kg, po by LC-MS/MS analysis; format: ADME, organism-based; conditions: in vivo
Experimental endpoint: half-life

half-life for "O=C(O)c1ccc2c(c1)nc(Nc1cccc(Cl)c1)c1ccncc12" is 11.6 h
